Listed compounds paired with reported Papp B→A at 90 min, 10 μM
- test-protocol: in vitro
- test-settings: human, Caco-2, pH 7.4

// query Papp B→A at 90 min, 10 μM for `CN1C2CCC1CN(c1cccc3nc([C@H]4CCC[C@@H](c5ncccc5Cl)N4)cn13)C2` ?
// result 10 to 30 ×10⁻⁶ cm/s

// query Quick one: Papp B→A at 90 min, 10 μM for `Cc1cccnc1[C@@H]1CCC[C@H](c2cn3c(N4C5CCC4CNC5)cccc3n2)N1C` ?
// result 10 to 30 ×10⁻⁶ cm/s

// query # get_value(readout='Papp B→A at 90 min, 10 μM', item= `CO[C@@H](c1c([C@H]2CCC[C@@H](c3ncccc3C)N2C)nc2ccccn12)C1CCN(C)CC1` )
// result 10 to 30 ×10⁻⁶ cm/s

// query Endpoint output: Papp B→A at 90 min, 10 μM of Cc1cccnc1[C@H]1CCC[C@@H](c2nc3cccc(N4CCN(C)CC4)n3c2F)N1C (stereo in doubt) . Value?
// result 0.1 to 10 ×10⁻⁶ cm/s

// query Quick check: Papp B→A at 90 min, 10 μM of `CCOCc1c([C@H]2CCC[C@@H](c3ncccc3Cl)N2C)nc2cccc(N3CCN(C)CC3)n12` ?
// result 10 to 30 ×10⁻⁶ cm/s

// query Recorded Papp B→A at 90 min, 10 μM for `Cc1cccnc1[C@@H]1CCC[C@H](c2cn3c(N4CCN(C)CC4)c(F)ccc3n2)N1C` , please?
// result 10 to 30 ×10⁻⁶ cm/s

// query Could you tell me which Papp B→A at 90 min, 10 μM is on file for `Cc1cccnc1[C@@H]1CCC[C@H](c2nc3ccccn3c2CN2CCN(C(C)C)CC2)N1C` ?
// result > 30 ×10⁻⁶ cm/s

// query Consider the compound shown here: `CN1CCN(c2cccc3nc([C@H]4CCC[C@@H](c5ncccc5Cl)N4)c(Cl)n23)CC1` What is its recorded Papp B→A at 90 min, 10 μM?
// result 10 to 30 ×10⁻⁶ cm/s

// query Endpoint output: Papp B→A at 90 min, 10 μM of `Cc1cccnc1[C@@H]1CCC[C@H](c2cn3c(N4CCN(CC(F)(F)F)CC4)cccc3n2)N1C` . Value?
// result 10 to 30 ×10⁻⁶ cm/s

// query Any idea what Papp B→A at 90 min, 10 μM was measured for `CN1CCN(c2cccc3nc([C@H]4CCC[C@@H](c5ncccc5C5CC5)N4)cn23)CC1` ?
// result 10 to 30 ×10⁻⁶ cm/s

* * *

- tested-on: CXCR-4 transfected U87 cell line (U87.CXCR4) (Homo sapiens (Human), UniProt P61073)
- Sequence (P61073 whole entry): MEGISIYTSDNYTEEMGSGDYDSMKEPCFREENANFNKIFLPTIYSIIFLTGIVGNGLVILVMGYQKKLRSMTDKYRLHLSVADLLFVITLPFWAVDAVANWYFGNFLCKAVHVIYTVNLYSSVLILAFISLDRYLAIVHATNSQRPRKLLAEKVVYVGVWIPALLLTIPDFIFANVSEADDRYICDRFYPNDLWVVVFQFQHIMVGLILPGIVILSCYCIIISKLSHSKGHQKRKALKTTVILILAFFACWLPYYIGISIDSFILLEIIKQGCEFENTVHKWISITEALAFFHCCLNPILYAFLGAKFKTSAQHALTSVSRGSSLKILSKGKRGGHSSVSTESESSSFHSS
- test-protocol: Intracellular CXCL-12-induced calcium mobilization assay (FLIPR)
- test-settings: U87.CXCR4 cells, CXCL-12 25-50 ng/mL; read-out: IC50 CXCL-12 Ca2+ flux U87.CXCR4+
metric-name: IC50

Examples with their reported IC50 follow.
{"compound": "Cc1cccnc1[C@@H]1CCC[C@H](c2cn3c(N4CCNC5(CC5)C4)cccc3n2)N1", "IC50": "≥ 1000 nM"}
{"compound": "CN1CCN(c2cccc3nc([C@H]4CCC[C@@H](c5ncccc5Cl)N4)c(Cl)n23)CC1", "IC50": "100 to 1000 nM"}
{"compound": "CNCCCc1c([C@@H]2CCC[C@H](c3ncccc3C)N2C)nc2ccccn12 (stereo in doubt)", "IC50": "0.01 to 100 nM"}
{"compound": "CN1CCN(c2cccc3nc([C@H]4CCC[C@@H](c5ncccc5C5CC5)N4C)cn23)CC1", "IC50": "0.01 to 100 nM"}
{"compound": "CCOCc1c([C@H]2CCC[C@@H](c3ncccc3C)N2C)nc2cccc(N3CCN(C)CC3)n12", "IC50": "0.01 to 100 nM"}
{"compound": "Cc1cccnc1[C@@H]1CCC[C@H](c2nc3ccccn3c2-c2cccnc2)N1", "IC50": "≥ 1000 nM"}
{"compound": "Cc1cccnc1[C@@H]1CCC[C@H](c2nc3cccc(N4C5CCC4CN(C)C5)n3c2Cl)N1C", "IC50": "0.01 to 100 nM"}

Now turn to the next compound.
// query Which IC50 is reported for this compound? `CCN1CCN(c2cccc3nc([C@H]4CCC[C@@H](c5ncccc5C)N4C)c(Br)n23)CC1`
// result 0.01 to 100 nM
